# Assay explanation: AUC (0 to 24 hrs) in human at 600 mg, po administered as single dose with meal measured on day 15
# Assay type: ADME, organism-based
# Design: time < 24 hr, dose 600 mg, route oral
# Assay context: plasma
Property measured: AUC(0-t) at 24 h (ng·h/mL)
State just the number; it will be interpreted in ng·h/mL.

Challenge: For "O=C1C=CN(c2c(F)cc(N3C[C@H](CNc4ccon4)OC3=O)c(F)c2F)CC1" , what is its reported AUC(0-t) at 24 h?
Response given: 72900

* * *

# Assay explanation: AUC (0 to infinity) in human at 900 mg, po administered as single dose at 30 mins post fat meal
# Format: ADME, organism-based
# Design: dose 900 mg, time infinity, route oral
# Assay context: plasma
Property measured: AUC(0-inf) (µg·h/mL)
Reply with just the number (in µg·h/mL).

Challenge: Please look up its AUC(0-inf): "O=C1C=CN(c2c(F)cc(N3C[C@H](CNc4ccon4)OC3=O)c(F)c2F)CC1"
Response given: 141
